- EXPERIMENTAL_TARGET: Aurora B/INCENP (Homo sapiens, UniProt Q96GD4)
- Sequence (Q96GD4 whole entry): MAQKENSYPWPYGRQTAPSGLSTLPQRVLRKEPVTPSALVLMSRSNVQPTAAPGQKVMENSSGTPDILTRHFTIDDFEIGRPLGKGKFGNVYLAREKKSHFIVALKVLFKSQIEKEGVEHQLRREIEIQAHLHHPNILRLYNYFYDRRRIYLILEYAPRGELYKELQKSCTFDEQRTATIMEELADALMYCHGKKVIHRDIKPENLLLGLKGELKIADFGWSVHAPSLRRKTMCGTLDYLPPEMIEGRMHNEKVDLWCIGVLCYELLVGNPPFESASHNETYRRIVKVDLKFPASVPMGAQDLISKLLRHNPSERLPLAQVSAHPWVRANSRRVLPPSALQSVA
- Sequence (Q9NQS7 whole entry partner): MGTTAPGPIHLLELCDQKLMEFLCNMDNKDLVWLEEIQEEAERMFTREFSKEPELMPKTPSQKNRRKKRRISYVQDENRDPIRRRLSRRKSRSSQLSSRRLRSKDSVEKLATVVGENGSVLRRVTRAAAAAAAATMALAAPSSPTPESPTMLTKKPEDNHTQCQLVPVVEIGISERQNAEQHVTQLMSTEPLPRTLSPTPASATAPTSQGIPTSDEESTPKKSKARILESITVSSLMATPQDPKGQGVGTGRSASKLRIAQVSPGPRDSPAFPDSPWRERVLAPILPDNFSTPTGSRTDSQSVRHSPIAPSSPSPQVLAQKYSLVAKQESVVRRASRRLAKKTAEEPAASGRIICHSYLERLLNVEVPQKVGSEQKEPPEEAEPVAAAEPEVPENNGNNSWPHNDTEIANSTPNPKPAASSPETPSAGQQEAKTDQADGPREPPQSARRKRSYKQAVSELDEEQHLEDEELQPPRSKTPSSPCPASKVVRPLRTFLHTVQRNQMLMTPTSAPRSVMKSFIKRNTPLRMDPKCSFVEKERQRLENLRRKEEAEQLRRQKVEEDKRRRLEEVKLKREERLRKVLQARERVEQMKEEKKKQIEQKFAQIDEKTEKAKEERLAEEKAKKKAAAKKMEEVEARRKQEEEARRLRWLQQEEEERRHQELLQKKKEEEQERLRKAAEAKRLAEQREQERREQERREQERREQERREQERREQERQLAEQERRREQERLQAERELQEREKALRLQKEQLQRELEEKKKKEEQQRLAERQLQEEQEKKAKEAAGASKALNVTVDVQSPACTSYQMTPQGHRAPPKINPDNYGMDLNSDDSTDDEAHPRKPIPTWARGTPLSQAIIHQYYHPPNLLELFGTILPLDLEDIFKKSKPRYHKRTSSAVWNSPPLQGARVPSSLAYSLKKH
- MEASUREMENT_PROTOCOL: Determination of inhibition of AIK: Aurora B/INCENP direct fluorescence polarization (IMAP) assay
- Assay type: biochemical
- EXPERIMENTAL_SETUP: 10 uM ATP, 0.8 nM Aurora B/INCENP; values given as bins; read-out: IC50 of Exemplified Compounds Against AIK B
- Experimental: Detection of the reaction product is performed by addition of Progressive IMAP binding reagent (Molecular Devices). Reaction product may be determined quantitatively by FP using an Analyst HT plate reader (Molecular Devices) with an excitation wavelength at 485 nm and emission at 530 nm and using a Fluorescein 505 dichroic mirror. […] IC50 values may be calculated by non-linear curve fitting of the compound concentrations and fluorescent polarization values to the standard IC50 equation.
pIC50: −log10 of the molar value.
pIC50 reference

# QUERY_SMILES, pIC50
records = [
    ("CCS(=O)(=O)c1cccc(-c2ccc(OC[C@H](O)CN(C)C)c3[nH]c4ncc(C)cc4c23)c1", "8.07 to 8.25"),
    ("Cc1cnc2[nH]c3c(OC[C@@H]4CN(CCOP(=O)(O)O)CCO4)ccc(-c4cccc(S(=O)(=O)C5CC5)c4)c3c2c1", "8.26 to 8.40"),
    ("Cc1cnc2[nH]c3c(OC[C@H]4CNCCO4)ccc(-c4cccc(S(=O)(=O)C5CC5)c4)c3c2c1", "> 8.40"),
    ("Cc1cnc2[nH]c3c(OC[C@H](CN(C)C)OP(=O)(O)O)ccc(-c4cccc(S(=O)(=O)C5CC5)c4)c3c2c1", "8.26 to 8.40"),
    ("CCS(=O)(=O)c1cccc(-c2cc(C(=O)N(C)CCN(C)C)c(C)c3[nH]c4ncc(C)cc4c23)c1", "< 7.89"),
    ("CCS(=O)(=O)c1cccc(-c2ccc(OCCN3CCCC3)c3[nH]c4ncc(Cl)cc4c23)c1", "8.07 to 8.25"),
    ("COc1ccc(-c2ccc3c(c2)OCO3)c2c1[nH]c1ncc(C)cc12", "< 7.89"),
    ("CCS(=O)(=O)c1cccc(-c2ccc(O[C@@H](C)CO)c3[nH]c4ncc(C)cc4c23)c1", "8.26 to 8.40"),
]

----------
- EXPERIMENTAL_TARGET: Aurora B/INCENP (Homo sapiens, UniProt Q96GD4)
- MEASUREMENT_PROTOCOL: Determination of inhibition of AIK: Aurora B/INCENP direct fluorescence polarization (IMAP) assay
- EXPERIMENTAL_SETUP: 10 uM ATP, 0.8 nM Aurora B/INCENP; values given as bins; read-out: IC50 of Exemplified Compounds Against AIK B
IC50 reference

# COMPOUND, EXPERIMENTAL_TARGET, IC50
measured = [
    ("CCS(=O)(=O)c1cccc(-c2ccc(OCCOC)c3[nH]c4ncc(C)cc4c23)c1 [Compound 208]", "Aurora B/INCENP (Homo sapiens, UniProt Q96GD4)", "8.6 to 13 nM"),
    ("CCS(=O)(=O)c1cccc(-c2ccc(OC[C@@H]3CCNC3)c3[nH]c4ncc(C)cc4c23)c1 [Compound 190]", "Aurora B/INCENP (Homo sapiens, UniProt Q96GD4)", "> 13 nM"),
    ("CCN(CCO)CCOc1ccc(-c2cccc(S(=O)(=O)C3CC3)c2)c2c1[nH]c1ncc(C)cc12 [Compound 318]", "Aurora B/INCENP (Homo sapiens, UniProt Q96GD4)", "8.6 to 13 nM"),
    ("CCS(=O)(=O)c1cccc(-c2ccc(OCCCn3ccnc3)c3[nH]c4ncc(Cl)cc4c23)c1 [Compound 301]", "Aurora B/INCENP (Homo sapiens, UniProt Q96GD4)", "< 4 nM"),
    ("CCS(=O)(=O)c1cccc(-c2ccc(OCCCN(C)CCOP(=O)(O)O)c3[nH]c4ncc(C)cc4c23)c1 [Compound 308]", "Aurora B/INCENP (Homo sapiens, UniProt Q96GD4)", "< 4 nM"),
    ("CCS(=O)(=O)c1cccc(-c2cc(NC(=O)C3CC3)c(OC)c3[nH]c4ncc(C)cc4c23)c1 [Compound 242]", "Aurora B/INCENP (Homo sapiens, UniProt Q96GD4)", "8.6 to 13 nM"),
    ("CCS(=O)(=O)c1cccc(-c2cc(C(=O)NCCNC)c(C)c3[nH]c4ncc(C)cc4c23)c1 [Compound 89]", "Aurora B/INCENP (Homo sapiens, UniProt Q96GD4)", "8.6 to 13 nM"),
    ("CCN1CCC(NC(=O)c2cc(-c3cccc(S(=O)(=O)CC)c3)c3c([nH]c4ncc(C)cc43)c2C)CC1 [Compound 105]", "Aurora B/INCENP (Homo sapiens, UniProt Q96GD4)", "> 13 nM"),
    ("CCOc1cccc(-c2ccc(OCC3CCN(C)CC3)c3[nH]c4ncc(C)cc4c23)c1 [Compound 184]", "Aurora B/INCENP (Homo sapiens, UniProt Q96GD4)", "> 13 nM"),
    ("CCS(=O)(=O)c1cccc(-c2ccc(OCC3CCN(C)CC3)c3[nH]c4ncc(C)cc4c23)c1 [Compound 177]", "Aurora B/INCENP (Homo sapiens, UniProt Q96GD4)", "8.6 to 13 nM"),
    ("Cc1cnc2[nH]c3c(OCC4CCN(CCO)CC4)ccc(-c4cccc(S(=O)(=O)C5CC5)c4)c3c2c1 [Compound 345]", "Aurora B/INCENP (Homo sapiens, UniProt Q96GD4)", "< 4 nM"),
    ("c1ccc(-c2cccc3[nH]c4ncccc4c23)cc1 [Compound 5, 5-phenyl-9H-pyrido[2,3-b]indole]", "Aurora B/INCENP (Homo sapiens, UniProt Q96GD4)", "> 13 nM"),
]
